EXPERIMENTAL_TARGET: T1, HLA-B*07:02 (human)
T1 construct: Peptide-receptive MHC class I monomer after UV cleavage of a UV-sensitive ligand
PROTOCOL: UV-ligand exchange, anti-b2m ELISA; peptide exchange yield grade

[
  {
    "BINDER": "SPKIFDSSW",
    "peptide exchange yield": "50 to 75%"
  },
  {
    "BINDER": "NPADISVAL",
    "peptide exchange yield": "≥ 75%"
  },
  {
    "BINDER": "GEPTSDITLL",
    "peptide exchange yield": "50 to 75%"
  },
  {
    "BINDER": "HPFGYDLTL",
    "peptide exchange yield": "≥ 75%"
  }
]

Data credit: patent US20220098269A1
